# Tested on: MDA-MB-231 breast
# experimental_details: NCI-60 one-dose screen, 48 h (100 = growth as untreated, 0 = no growth, -100 = all killed)
# condition_details: 10 µM unless noted
The panel holds about 83,000 compounds, 20% with a hit somewhere; the sample as a whole holds those more often.
assay_readout: growth (%)
Note: unit % is implicit; provide only the numeric part.

Query: Which growth reading was recorded for the molecule COc1ccc(/C=N/Nc2c3ccccc3nc3ccccc23)cc1 ?
Result: 93.9

Query: // query: Cc1ccc2c(/C=C/C(=O)c3cc(CN4CCOCC4)c(O)c4nc(C)ccc34)cc(CN3CCOCC3)c(O)c2n1
Result: 11.5

Query: // query: c1ccc(-c2c(-c3ccccc3)[n+](Cc3ccc4ccccc4c3)cn2Cc2ccc3ccccc3c2)cc1
Result: -79.4

Query: // query: C[C@H](c1nc2ccc(C#N)cc2[nH]1)[C@H]1CC[C@H]2[C@@H]3CCC4=CC(=O)CC[C@]4(C)[C@H]3CC[C@]12C
Result: 70.1

Query: // query: Cc1ccc2cnc(N)c(C#Cc3cc(C(=O)Nc4ccc(CN5CCN(C)CC5)c(C(F)(F)F)c4)cnc3C)c2c1
Result: -70.5

Query: // query: C#Cc1cccc(Nc2ncnc3cc(NC(=O)CCl)ccc23)c1
Result: -70.3

Query: // query: Cn1c(=O)[nH]c(=O)c2nc3c(nc21)-c1ccccc1C3=O
Result: 101

Query: // query: C=C1CC[C@@H]2C(C)(C)[C@H](O)CC[C@@]2(C)[C@@H]1COc1ccc2ccc(=O)oc2c1
Result: 84

Query: // query: Cn1c(C#N)ccc1-c1ccc(F)c(NC(=O)c2ccc(F)cc2)c1
Result: 73.7
